quantity-kind: melting point (°C)

| smiles | sign | data-value |
| --- | --- | --- |
| COc1ccc(-c2[nH]nc3c2C(=O)c2c(NC(=O)Cc4ccc(NC(=O)CN(C)C)cc4)cccc2-3)cc1 | > | 300 |
| COc1ccc(-c2[nH]nc3c2C(=O)c2c(NC(=O)Cc4ccc(OC)c(OC)c4)cccc2-3)cc1 | > | 300 |
| COc1ccc(-c2[nH]nc3c2C(=O)c2c(NC=O)cccc2-3)cc1 | = | 280 |
| COc1ccc(-c2[nH]nc3c2C(=O)c2c(NC(=O)Cc4ccccc4Cl)cccc2-3)cc1 | = | 300 |

###

Reported melting point values for the following molecules.
Structures can show the parent of a compound that is named as a salt.

| molecule | result-units | sign | melting point |
| --- | --- | --- | --- |
| CNc1ccc(NC(=O)c2ccc(-c3[nH]nc4c3C(=O)c3c(NC(=O)NN5CCOCC5)cccc3-4)s2)cc1 (as salt: TFA) [Example CXCVI] | °C | = | 230 |
| CN1CCCC(C(=O)N2CCC(c3[nH]nc4c3C(=O)c3c(NC(=O)NN5CCOCC5)cccc3-4)CC2)C1 (stereo not shown) (as salt: TFA) [Example CCLXXXVIII] | °C | = | 158 |
| NNC(=O)Nc1cccc2c1C(=O)c1c-2n[nH]c1-c1ccc(N2CCNCC2)cc1 (as salt: TFA) [Example CCXIII] | °C | = | 257 |
| COc1ccc(-c2[nH]nc3c2C(=O)c2c(NC(=O)Cc4ccc(N=[N+]=[N-])cc4)cccc2-3)cc1 [Example XL] | °C | > | 300 |
| COc1ccc(-c2[nH]nc3c2C(=O)c2c(NC(=O)CN)cccc2-3)cc1 [Example XXIII] | °C | > | 300 |
| COc1ccc(-c2[nH]nc3c2C(=O)c2c(NC(C)=O)cccc2-3)cc1OC [Example XVI] | °C | > | 300 |
| CN(C)C1CCN(C(=O)c2ccc(-c3[nH]nc4c3C(=O)c3c(NC(=O)NN5CCOCC5)cccc3-4)s2)CC1 (as salt: TFA) [Example CLVIII] | °C | = | 185 |

###

Where a name gives a salt, the structure may show the parent alone.
Reported melting point values for the following compounds.

| compound | sign | melting point (°C) |
| --- | --- | --- |
| CN(C)NC(=O)Nc1cccc2c1C(=O)c1c-2n[nH]c1-c1ccc(N2CCNCC2)cc1 (as salt: TFA) | = | 238 |
| CN(C)[C@@H]1CCN(C(=O)c2ccc(-c3[nH]nc4c3C(=O)c3c(NC(=O)NN5CCOCC5)cccc3-4)s2)C1 (as salt: TFA) | = | 265 |
| Nc1ccc(C(=O)N2CCC(c3[nH]nc4c3C(=O)c3c(NC(=O)NN5CCOCC5)cccc3-4)CC2)cc1 (as salt: TFA) | = | 198 |
| NC1CCCC(NC(=O)c2ccc(-c3[nH]nc4c3C(=O)c3c(NC(=O)NN5CCOCC5)cccc3-4)s2)C1 (stereo not drawn) (as salt: TFA) | > | 300 |
| CC(=O)Nc1ccc(NC(=O)c2ccc(-c3[nH]nc4c3C(=O)c3c(NC(=O)NN5CCOCC5)cccc3-4)s2)cc1 (as salt: TFA) | = | 253 |
| COc1ccc(-c2[nH]nc3c2C(=O)c2c(NC(=O)Nc4ccccc4)cccc2-3)cc1 | > | 300 |
